Catalogue of compounds with associated melting point

Example entries begin here.
COMPOUND	REPORTED
N#Cc1ncc(NCCO)nc1N1CCC(c2ccc(F)cc2)CC1 [Example 82]	155 to 158 °C
Cc1nc(N2CCC(c3ccc(F)cc3)CC2)c([N+](=O)[O-])c(=O)n1CCCCO [Example 18]	154 to 156 °C
Cc1nc(OCC(F)(F)F)c([N+](=O)[O-])c(N2CCN(c3ccc(F)cc3)CC2)n1 [Example 12-2]	92 to 95 °C
Cc1nc(N2CC=C(c3ccccc3)CC2)c([N+](=O)[O-])c(=O)[nH]1 [Example 6]	212 to 216 °C (dec.)
Cc1nc(N2CCC(c3ccc(F)cc3)CC2)c([N+](=O)[O-])c(=O)n1CC#N [Example 16]	213 to 215 °C (dec.)

Asked: Sample N#Cc1ncc(NCCO)nc1N1CCN(c2ccc(F)cc2)CC1 [Example 83] — what was its melting point?
Given back: 149 to 151 °C

Asked: Can you share its melting point? I mean this compound: Cc1nc(N2CCN(c3ccc(F)cc3)CC2)c([N+](=O)[O-])c(=O)[nH]1 [Example 1]
Given back: > 250 °C (dec.)

Asked: Report melting point for Cc1nc(OCC(F)(F)F)c([N+](=O)[O-])c(N2CCC(c3ccc(F)cc3)CC2)n1 [Example 13-2] please.
Given back: 61 to 64 °C

Asked: Quick one: melting point for Cc1nc(N2CCC(O)(c3ccccc3)CC2)c([N+](=O)[O-])c(=O)[nH]1 [Example 3] ?
Given back: > 250 °C (dec.)
